Data provenance is patent US11008282B2.

# mitochondrial membrane potential per record follows
- Test system: HepG2 cells
- recordedConditions: human, 50 μM

>  <molecule>
Cc1ccc(C(=O)c2cc(O)c(O)c([N+](=O)[O-])c2)cc1 [tolcapone, reference compound]

>  <measureName>
mitochondrial membrane potential

>  <reportedMeasurement>
20-30 % of untreated HepG2 cells

$$$$

Kindly consider the entry below.
# mitochondrial membrane potential of CCN1C(=O)S/C(=C\c2cc(O)c(O)c([N+](=O)[O-])c2)C1=O [CPT-212] = 20-30 % of untreated HepG2 cells
